Where do these numbers come from? They come from ChEMBL document CHEMBL1208682.

tested on: Escherichia coli; assay: Antibacterial activity against Escherichia coli ATCC 25922 after 3 to 4 days by serial plate dilution method; format: functional; note: test concentration or dose not given here
Entries and their diameter of the inhibition zone (DIZ)
outcomeMeasure: diameter of the inhibition zone (DIZ)

> print(dat)
                                 smilestext                         outcomemeasure  value
1  CC(=O)OCc1ccc(/C=N/Nc2cc(C(F)(F)F)nc3c(C(F)(F)F)cccc23)o1  diameter of the inhibition zone (DIZ)  20 mm
2  Cc1cc(C)cc(NC(=O)NNc2cc(C(F)(F)F)nc3c(C(F)(F)F)cccc23)c1  diameter of the inhibition zone (DIZ)  20 mm
3  Cn1cccc1/C=N/Nc1cc(C(F)(F)F)nc2c(C(F)(F)F)cccc12  diameter of the inhibition zone (DIZ)  20 mm

====

system: Pseudomonas aeruginosa; experiment: Antibacterial activity against Pseudomonas aeruginosa ATCC 27853 after 3 to 4 days by serial plate dilution method; assay type: functional; settings: Pseudomonas aeruginosa, ATCC 27853
outcomeMeasure: MIC (µg/mL)

> print(dat)
                                 smilestext  outcomemeasure  value
1  O=C1CC(CCc2ccc3c(c2)OCO3)=NN1c1cc(C(F)(F)F)nc2c(C(F)(F)F)cccc12             MIC   6.25
2  CC(=O)OCc1ccc(/C=N/Nc2cc(C(F)(F)F)nc3c(C(F)(F)F)cccc23)o1             MIC   12.5
3  Cn1cccc1/C=N/Nc1cc(C(F)(F)F)nc2c(C(F)(F)F)cccc12             MIC   6.25
4  Cn1nnc2cc(/C=N/Nc3cc(C(F)(F)F)nc4c(C(F)(F)F)cccc34)ccc21             MIC   6.25
5  FC(F)(F)c1cc(N/N=C/C2CCCCC2)c2cccc(C(F)(F)F)c2n1             MIC   6.25

====

system: Mycobacterium tuberculosis; assay: Antituberculosis activity against Mycobacterium tuberculosis H37Rv ATCC 27294 after 7 days using resazurin dye by broth microdilution assay; format: functional; conditions: H37Rv ATCC 27294, 168 h
outcomeMeasure: MIC

> print(dat)
                                 smilestext    value
1  FC(F)(F)c1cc(N/N=C/c2cccs2)c2cccc(C(F)(F)F)c2n1  > 50 µM
2  Oc1cc(F)ccc1/C=N/Nc1cc(C(F)(F)F)nc2c(C(F)(F)F)cccc12  > 50 µM
3  CC(=O)OCc1ccc(/C=N/Nc2cc(C(F)(F)F)nc3c(C(F)(F)F)cccc23)o1  > 50 µM
4  Fc1ccccc1NC(=S)NNc1cc(C(F)(F)F)nc2c(C(F)(F)F)cccc12  > 50 µM
5  FC(F)(F)c1cc(N/N=C/c2cocc2Br)c2cccc(C(F)(F)F)c2n1  > 50 µM
